- Tested on: HL-60
- test_protocol: Alamar blue cytotoxicity assay
- Assay type: cell-based, human
- experimental_setup: Homo sapiens, 72 h, read-out: IC50 and 95%CI
assay_metric: IC50 (nM)

molecule: COc1cccc2c1C(=O)c1c(O)c3c(c(O)c1C2=O)C[C@@](O)(C(=O)CO)C[C@@H]3O[C@H]1C[C@H](N)[C@H](O)[C@H](C)O1 [DOX, Doxorubicin, reference compound]
assay_metric: IC50
output_unit: nM
recorded_number: 90

====

- Tested on: WT SV40 MEF
- test_protocol: Alamar blue survival curves
- Assay type: cell-based
- experimental_setup: Mus musculus, 72 h
assay_metric: IC50 (µM)

compound: O=c1[nH]cc(F)c(=O)[nH]1 [5-FU, 5-fluorouracil, reference compound]
target_or_system: WT SV40 MEF
assay_metric: IC50
recorded_number: 10
